# collection of IC50 values tested on Antithrombin-III (Homo sapiens)
# Sequence (P01008 whole entry): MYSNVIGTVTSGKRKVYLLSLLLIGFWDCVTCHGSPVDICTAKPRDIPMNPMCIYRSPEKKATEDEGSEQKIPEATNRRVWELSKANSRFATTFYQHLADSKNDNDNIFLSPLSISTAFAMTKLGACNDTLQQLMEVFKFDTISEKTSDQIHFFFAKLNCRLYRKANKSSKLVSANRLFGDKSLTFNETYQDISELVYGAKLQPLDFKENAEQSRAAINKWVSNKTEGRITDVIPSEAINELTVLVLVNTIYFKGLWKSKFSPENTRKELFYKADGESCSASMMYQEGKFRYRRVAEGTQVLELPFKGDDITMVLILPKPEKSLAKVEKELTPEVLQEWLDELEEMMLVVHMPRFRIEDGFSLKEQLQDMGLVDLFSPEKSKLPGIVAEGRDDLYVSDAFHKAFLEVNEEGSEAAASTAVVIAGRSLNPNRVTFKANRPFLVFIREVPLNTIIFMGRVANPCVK

Record excerpt, results attached:
{"columns": ["record smiles", "IC50"],
 "data": [
  ["O=S(=O)(NCCCCNS(=O)(=O)c1ccc(O)c(O)c1)c1ccc(O)c(O)c1", "> 3000 µM"],
  ["CCN(CCN(CC)S(=O)(=O)c1ccccc1)S(=O)(=O)c1ccccc1", "> 300 µM"],
  ["CCN(CCN(CC)S(=O)(=O)c1ccc(O)c(O)c1)S(=O)(=O)c1ccc(O)c(O)c1", "> 1000 µM"],
  ["O=S(=O)(c1ccc(O)c(O)c1)N1CCN(S(=O)(=O)c2ccc(O)c(O)c2)CC1", "> 300 µM"],
  ["O=S(=O)(NCCCCCCNS(=O)(=O)c1ccc(O)c(O)c1)c1ccc(O)c(O)c1", "> 3000 µM"]
]}

Continue with the next compound.
Respond only with IC50 recorded for CCCCCCN(S(=O)(=O)c1ccc(O)c(O)c1)S(=O)(=O)c1ccc(O)c(O)c1
> 300 µM

###

tested system: Plasminogen activator inhibitor 1 (Homo sapiens, UniProt P05121)
Sequence (P05121 whole entry): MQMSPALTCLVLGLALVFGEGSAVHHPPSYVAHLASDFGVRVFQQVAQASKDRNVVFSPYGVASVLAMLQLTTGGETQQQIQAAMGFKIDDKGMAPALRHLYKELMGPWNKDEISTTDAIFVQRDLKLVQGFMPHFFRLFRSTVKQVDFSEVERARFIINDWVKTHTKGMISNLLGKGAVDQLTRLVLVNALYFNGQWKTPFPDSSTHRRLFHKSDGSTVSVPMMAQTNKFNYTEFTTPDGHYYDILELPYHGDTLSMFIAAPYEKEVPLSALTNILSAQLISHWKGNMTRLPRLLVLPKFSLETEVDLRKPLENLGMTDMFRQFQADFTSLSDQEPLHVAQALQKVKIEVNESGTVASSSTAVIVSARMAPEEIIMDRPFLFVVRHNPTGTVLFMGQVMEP
test description: Inhibition of human recombinant PAI1 assessed as rate of AMC release after 30 mins
pIC50: −log10 of the molar value.
Output condition met for pIC50 not less than 6; output condition not met otherwise.

{"columns": ["record smiles", "tested system", "group label"],
 "data": [
  ["CCN(CCN(CC)S(=O)(=O)c1ccc(OC)c(OC)c1)S(=O)(=O)c1ccc(OC)c(OC)c1", "Plasminogen activator inhibitor 1 (Homo sapiens, UniProt P05121)", "condition not met"],
  ["CCN(CCN(CC)S(=O)(=O)c1ccccc1)S(=O)(=O)c1ccccc1", "Plasminogen activator inhibitor 1 (Homo sapiens, UniProt P05121)", "condition not met"],
  ["O=S(=O)(c1ccc(O)c(O)c1)N(C1CCCCC1)S(=O)(=O)c1ccc(O)c(O)c1", "Plasminogen activator inhibitor 1 (Homo sapiens, UniProt P05121)", "condition met"],
  ["O=S(=O)(NCCCCCCNS(=O)(=O)c1ccc(O)c(O)c1)c1ccc(O)c(O)c1", "Plasminogen activator inhibitor 1 (Homo sapiens, UniProt P05121)", "condition not met"],
  ["CCCN(S(=O)(=O)c1ccc(O)c(O)c1)S(=O)(=O)c1ccc(O)c(O)c1", "Plasminogen activator inhibitor 1 (Homo sapiens, UniProt P05121)", "condition not met"]
]}

With those in mind, consider the next compound.
Has O=S(=O)(NCCCCNS(=O)(=O)c1ccc(O)c(O)c1)c1ccc(O)c(O)c1 a recorded pIC50 greater than or equal to 6?
condition not met

###

IC50 overview
tested system: Plasminogen activator inhibitor 1 (Homo sapiens)
test description: Inhibition of human recombinant PAI1 assessed as rate of AMC release after 30 mins

{"columns": ["record smiles", "IC50"],
 "data": [
  ["O=S(=O)(c1ccc(O)c(O)c1)N(Cc1ccccc1)S(=O)(=O)c1ccc(O)c(O)c1", "4.82 µM"]
]}

Respond only with IC50 recorded for CCN(CCN(CC)S(=O)(=O)c1cc(F)c(O)c(F)c1)S(=O)(=O)c1cc(F)c(O)c(F)c1
128 µM

Respond only with IC50 recorded for O=S(=O)(c1ccc(O)c(O)c1)N1CCN(S(=O)(=O)c2ccc(O)c(O)c2)CC1
> 300 µM

Respond only with IC50 recorded for CCN(CCN(CC)S(=O)(=O)c1cccc(O)c1)S(=O)(=O)c1cccc(O)c1
343 µM

Respond only with IC50 recorded for CCN(CCN(CC)S(=O)(=O)c1cc(O)ccc1O)S(=O)(=O)c1cc(O)ccc1O
> 300 µM

Respond only with IC50 recorded for CCN(CCN(CC)S(=O)(=O)c1ccc(O)c(O)c1)S(=O)(=O)c1ccc(O)c(O)c1
9.32 µM
